Settings: buffer; pH 7.4; 200.0 µM
quantity-kind: solubility kinetic

Can you look up the measured solubility kinetic of "O=S(=O)(c1cc(Cl)ccc1Cl)N1CCc2ccccc21" for me?
< 0.7 µg/mL

Further, for "CC(=O)Nc1ccc(S(=O)(=O)Nc2nc(C)nc3sc(C)c(C)c23)cc1" ?
> 58.6 µg/mL

Further, for "COc1cccc(C(=O)NCC(=O)N/N=C/c2cccnc2)c1" ?
> 46.8 µg/mL

Further, for "N#Cc1cccc(NC(=O)CSc2cccc[n+]2[O-])c1" ?
> 42.8 µg/mL

Further, for CC(O)CCC(=O)NNC(=S)Nc1ccccc1 (stereo unspecified) ?
> 40.1 µg/mL

Further, for "COc1ccc(OC)c(NC(=O)c2cccnc2)c1" ?
> 38.7 µg/mL
